Value source: the supplement of paper PMC10338343

# pre-steady-state target cleavage rate annotations
# Test system: MILI (PIWIL2) piRISC loaded with L1MC piRNA (26 nt);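 also: 1 nM active piRISC with 0.1 nM target library at 33 °C single turnover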
# experiment-summary: pre-steady-state target cleavage rate (min^-1); guide: L1MC piRNA 5'p-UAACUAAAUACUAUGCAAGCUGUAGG; higher = faster piRNA-guided slicing of the target
# particulars: auxiliary factor: none (no GTSF1)
Answer as a number with no unit attached.

{"monomer-sequence": "UCCUGGAUGUGUCUUGCAUAGUAUUUAGUUA", "pre-steady-state target cleavage rate": 0.014}

Ask: Identify measured pre-steady-state target cleavage rate associated with UCCUCCUACAGCUGCAUAGUAUUUAGUUA
Reply: 0.00792

Ask: Identify measured pre-steady-state target cleavage rate associated with UCCUGGAACAGCUUGCUUAGUAUUUAGUUA
Reply: 0.00723

Ask: Identify measured pre-steady-state target cleavage rate associated with UCCUGGAACAGGCUUGCAUAGUAUUUAGUUA
Reply: 0.0094

Ask: Identify measured pre-steady-state target cleavage rate associated with UCCUCCUACGCUUGCAUAGUAUUUAGUUA
Reply: 0.0071

Ask: Identify measured pre-steady-state target cleavage rate associated with UCCUCCUACAGCUUGCAAUGUAUUUAGUUA
Reply: 0.00693

* * *

# System: EfPiwi piRISC loaded with L1MC piRNA (26 nt)
# experiment-summary: pre-steady-state target cleavage rate (min^-1); auxiliary factor: 500 nM Ephydatia muelleri Gtsf1; guide: L1MC piRNA 5'p-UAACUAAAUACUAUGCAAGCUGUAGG; higher = faster piRNA-guided slicing of the target
# pre-steady-state target cleavage rate annotations
Answer as a number with no unit attached.

Ask: Please report the measured pre-steady-state target cleavage rate for UCCUGGUACAGGAUGCAUAGUAUUUAGAAA tested on EfPiwi piRISC loaded with L1MC piRNA (26 nt).
Reply: 0.00448

Ask: Please report the measured pre-steady-state target cleavage rate for UCCUCCUACAGCUUGCAUAGUAUUCUAGUUA tested on EfPiwi piRISC loaded with L1MC piRNA (26 nt).
Reply: 0.00344

Ask: Please report the measured pre-steady-state target cleavage rate for UCCUGCUACAGCUUGCAUAGUAAUUAGAUA tested on EfPiwi piRISC loaded with L1MC piRNA (26 nt).
Reply: 0.00345

Ask: Please report the measured pre-steady-state target cleavage rate for UCCUGGAUCAGCUUGCAUUGUAUUAAGUUA tested on EfPiwi piRISC loaded with L1MC piRNA (26 nt).
Reply: 0.00314

Ask: Please report the measured pre-steady-state target cleavage rate for UCCUGCUACAGGAUGCAUAGUAUUUAGUAA tested on EfPiwi piRISC loaded with L1MC piRNA (26 nt).
Reply: 0.00317

Ask: Please report the measured pre-steady-state target cleavage rate for UCCUGGAUGUCCUUGCAUAGUACUUAGUUA tested on EfPiwi piRISC loaded with L1MC piRNA (26 nt).
Reply: 0.00586

Ask: Please report the measured pre-steady-state target cleavage rate for UCCUGGUACAGCUUGCAUAGUAAUUACAAA tested on EfPiwi piRISC loaded with L1MC piRNA (26 nt).
Reply: 0.00331

Ask: Please report the measured pre-steady-state target cleavage rate for UCCUGGAUGUGCUUGCAUAGUAUUUAGAAA tested on EfPiwi piRISC loaded with L1MC piRNA (26 nt).
Reply: 0.00293

Ask: Please report the measured pre-steady-state target cleavage rate for UCCUGGAUCAGCUUGCAUACUAUUUAGUAA tested on EfPiwi piRISC loaded with L1MC piRNA (26 nt).
Reply: 0.00398

* * *

# Tested on: MILI (PIWIL2) piRISC loaded with piRNA #1 (26 nt);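 also: 1 nM active piRISC with 0.1 nM target library at 33 °C single turnover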
# experiment-summary: pre-steady-state target cleavage rate (min^-1); guide: piRNA #1 5'p-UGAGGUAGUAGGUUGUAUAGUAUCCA; higher = faster piRNA-guided slicing of the target
# particulars: auxiliary factor: 500 nM mouse GTSF1
Class 1.0: pre-steady-state target cleavage rate at least 0.04. Class 0.0: pre-steady-state target cleavage rate below 0.04.

Ask: Confirm if pre-steady-state target cleavage rate reported for the sequence GGAGACCUAUGUAUAGAACCUACUACCUGA is 0.04 or above.
Reply: 0.0

Ask: Confirm if pre-steady-state target cleavage rate reported for the sequence GGAGACCUAUGAUUUCAACCUACAACCUCA is 0.04 or above.
Reply: 0.0

Ask: Confirm if pre-steady-state target cleavage rate reported for the sequence GGAGUGGAUACUUACAACCUACUACCUCA is 0.04 or above.
Reply: 1.0

* * *

# pre-steady-state target cleavage rate annotations
# Tested on: MILI (PIWIL2) piRISC loaded with L1MC piRNA (26 nt);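 also: 1 nM active piRISC with 0.1 nM target library at 33 °C single turnover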
# experiment-summary: pre-steady-state target cleavage rate (min^-1); guide: L1MC piRNA 5'p-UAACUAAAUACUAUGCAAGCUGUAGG; higher = faster piRNA-guided slicing of the target
# particulars: auxiliary factor: 500 nM mouse GTSF1
Answer as a number with no unit attached.

// worked examples, pre-steady-state target cleavage rate included
{"monomer-sequence": "UCCUGGAUCAGCCUUGCAUAGUAUUUAGUUA", "measured-quantity": "pre-steady-state target cleavage rate", "recorded-value": 0.249}
{"monomer-sequence": "UCCUGCUACAGCUUGCAUUAGUAUUUAGUUA", "measured-quantity": "pre-steady-state target cleavage rate", "recorded-value": 0.017}
{"monomer-sequence": "UCCUGGAUGUGCUUGGAUAGUAAUUAGUUA", "measured-quantity": "pre-steady-state target cleavage rate", "recorded-value": 0.0687}
{"monomer-sequence": "UCCUGGAUGUGCUUGUAUAGUAUUUAGUUA", "measured-quantity": "pre-steady-state target cleavage rate", "recorded-value": 0.142}
{"monomer-sequence": "UCCUGGAAGAGCUAGCAUAGUAUUUAGUUA", "measured-quantity": "pre-steady-state target cleavage rate", "recorded-value": 0.212}

Ask: Identify measured pre-steady-state target cleavage rate associated with UCCUGGAUGUGCUUGCUUACUAUUUAGUUA
Reply: 0.0117

Ask: Identify measured pre-steady-state target cleavage rate associated with UCCUGGAUGAGCUUGCUUAGUAUAUAGUUA
Reply: 0.103

Ask: Identify measured pre-steady-state target cleavage rate associated with UCCUGGAACAGCUUGCAUAGUAUUAACAAA
Reply: 0.104

Ask: Identify measured pre-steady-state target cleavage rate associated with UCCUGGAACAGCUUGCAAAGUAUUAAGUUA
Reply: 0.0867

Ask: Identify measured pre-steady-state target cleavage rate associated with UCCUGGAACUGCUUGCAUAGUAUUUAGUUA
Reply: 0.228

Ask: Identify measured pre-steady-state target cleavage rate associated with UCCUGCUACACCUAGCAUAGUAUUUAGUUA
Reply: 0.254

* * *

# System: EfPiwi piRISC loaded with piRNA #1 (26 nt)
# experiment-summary: pre-steady-state target cleavage rate (min^-1); auxiliary factor: 500 nM Ephydatia muelleri Gtsf1; guide: piRNA #1 5'p-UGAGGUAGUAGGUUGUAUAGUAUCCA; MIWI and MILI are mouse PIWI proteins and EfPiwi is from a freshwater sponge; tags in brackets are library labels; higher = faster piRNA-guided slicing of the target
measured-quantity: pre-steady-state target cleavage rate
Answer as a number with no unit attached.

// worked examples, pre-steady-state target cleavage rate included
{"monomer-sequence": "GGAGAGGAAACUAUACAACCUACAACCUCA", "measured-quantity": "pre-steady-state target cleavage rate", "recorded-value": 0.00279}
{"monomer-sequence": "GGAGAGGAUACUAUACAACCUACUACGAGA", "measured-quantity": "pre-steady-state target cleavage rate", "recorded-value": 0.00374}
{"monomer-sequence": "GGAGUGGAUACUUUACAACCUACUACCUCA", "measured-quantity": "pre-steady-state target cleavage rate", "recorded-value": 0.00658}
{"monomer-sequence": "GGAGACCUAUCUAUACAACCUACAACCUCA", "measured-quantity": "pre-steady-state target cleavage rate", "recorded-value": 0.00366}
{"monomer-sequence": "GGAGUGGAUACUAUACAACCUACAUCCUCA", "measured-quantity": "pre-steady-state target cleavage rate", "recorded-value": 0.00282}
{"monomer-sequence": "GGAGACGAUACUAUACACCUACUACCUCA", "measured-quantity": "pre-steady-state target cleavage rate", "recorded-value": 0.0134}

Ask: Identify measured pre-steady-state target cleavage rate associated with GGAGACGUACUAUACAACCUACUACCUCA
Reply: 0.0561

Ask: Identify measured pre-steady-state target cleavage rate associated with GGAGAGGAUACUAUACAACCUUACUACCUCA
Reply: 0.00845

Ask: Identify measured pre-steady-state target cleavage rate associated with GGAGUGGAUACUAUACAACCAUACUACCUCA
Reply: 0.00742

Ask: Identify measured pre-steady-state target cleavage rate associated with GGAGACCCUACUAUACAACCUACUACCUCA
Reply: 0.153

Ask: Identify measured pre-steady-state target cleavage rate associated with GGAGUGGAUACUCUACAACCUACUACCUCA
Reply: 0.00588

Ask: Identify measured pre-steady-state target cleavage rate associated with GGAGACGAUACUAUACAACCUACUACCCUCA
Reply: 0.00506

Ask: Identify measured pre-steady-state target cleavage rate associated with GGAGUGGAUACUAUACAAUCUACUACCUCA
Reply: 0.105

Ask: Identify measured pre-steady-state target cleavage rate associated with GGAGACGAUACUAUACAACCUCUACCUCA
Reply: 0.00608

Ask: Identify measured pre-steady-state target cleavage rate associated with GGAGACGAUACUAUUCAACCUACAACCUCA
Reply: 0.0024

Ask: Identify measured pre-steady-state target cleavage rate associated with GGAGUGCAUACUAUACUACCUACUACCUCA
Reply: 0.00588

Ask: Identify measured pre-steady-state target cleavage rate associated with GGAGACCUUACUAUACAACCUACUACCUGCA
Reply: 0.00419
